Data credit: PubChem BioAssay (NCI)

Test system: HCC-2998 colon
Test: NCI-60 one-dose screen, 48 h
Conditions: 10 µM unless noted
Procedure: Growth inhibition of the HCC-2998 human tumor cell line is measured as a screen for anti-cancer activity. Cells are grown in 96 well plates and exposed to the test compound for 48 hours. Compounds are tested at a single concentration, which is 10^-5 M for most compounds. The reported endpoint is percent growth (GI% or GIPRCNT), where numbers from 0 - 100% represent growth inhibition, and numbers from -100% - 0 represent cell death. For example, a value of 40 represents 60% growth inhibition. […]
This is part of a sample that, as a whole, favours compounds with a hit. Of some 83,000 tested, about 20% had one in any assay. The source made the active and inactive calls. Rule for the calls: active = growth percent below 10; inactive = the rest.
Return exactly one item of YES (active), NO (inactive)

• O=Cc1nc2ccccc2[nH]1 = NO
• COc1ccc(CCN2C(=O)C(C)(C)SC2=S)cc1OC = NO
• C#Cc1cccc(NC(=O)C2CCCN(C(=O)CCl)C2)c1 (stereo not given) = NO
• CCOC(=O)C1OC1(c1ccccc1)c1ccccc1 (stereo not given) = NO
• Cc1cc(Cl)nc(N(CCCNc2ccnc3cc(Cl)ccc23)Cc2ccco2)n1 = NO

Task: What outcome does the record of this test show for COC(=O)[C@]12CC[C@@H](C(C)=O)[C@@H]1[C@H]1CC[C@@H]3[C@@]4(C)C/C(=C/c5cccnc5)C(=O)C(C)(C)[C@@H]4CC[C@@]3(C)[C@]1(C)CC2 ?
Output: NO

----------
system: IGROV1 ovarian; experiment: NCI-60 one-dose screen, 48 h (100 = growth as untreated, 0 = no growth, -100 = all killed); details: 10 µM unless noted
The panel holds about 83,000 compounds, 20% with a hit somewhere; the sample as a whole holds those more often.
growth values, listed per item
Record the value in %, omitting the unit from your answer.

Recorded growth, per entry:
• CCc1ccc(-c2ccc(Nc3ccccc3)nn2)cc1S(N)(=O)=O = 106
• O=Cc1nc2ccccc2[nH]1 = 107
• Fc1ccc(NCc2nnc(-c3ccc(Cl)cc3)o2)cc1 = 51.6
• CN1CCN(CC#CCn2c3c(c4ccccc42)C[C@]2(C)[C@H]4CC[C@@H]5[C@H]6[C@H]7OC(=O)[C@@]6(CCC7(C)C)CC[C@@]5(C)[C@]4(C)CC[C@H]2C3(C)C)CC1 = 90.9
• C#CCC(C)(O)/C=C/C1=C(C)CCCC1(C)C (stereo unspecified) = 102
• CSc1ccc(N(C)c2nc(C)nc3c2CCC3)cc1 = 31.3
• N=C(N)c1ccc(-c2ccc(-c3cc(F)cc(F)c3)o2)nc1 = 88.6
• c1ccc2[nH]c(-c3cc(-c4ccc5c(c4)OCO5)n[nH]3)nc2c1 = 56.6

Task: Sample COc1ccc2c(c1)C(Br)=C(CCO)C2c1ccccc1 (stereo unspecified) — what was its growth?
Output: 83.5

Task: Entry to check: COc1cc2nc(Cl)nc(Nc3cccc(C(=O)/C=C/c4ccc(Br)cc4)c3)c2cc1OC
Output: 86.8

Task: Entry to check: CC(=O)O[C@H]1CC[C@]2(C)[C@H]3C(=O)C=C4[C@@H]5C[C@](C)(C(=O)N6CCCNCC6)CC[C@]5(C)CC[C@@]4(C)[C@]3(C)CC[C@H]2C1(C)C
Output: -80.5

Task: Entry to check: COC1=C(Br)C(=O)C(OC)=C(Br)C1=O
Output: 111

Task: Entry to check: COc1ccc(-c2cc(-c3cccs3)n(N=O)c(=O)c2C#N)cc1
Output: 100

Task: Entry to check: O=C(CCCCCn1c2ccccc2c2c3c(c4c5ccccc5[nH]c4c21)C(=O)N(O)C3=O)N1CCOCC1
Output: -26.5

Task: Entry to check: CN(CSc1ccc(Cl)cc1)c1ccc(CSc2ccc(Cl)cc2)cc1
Output: 42.9

Task: Entry to check: N#CCCCCCn1c2ccccc2c2c3c(c4c5ccccc5n(CCCCCC#N)c4c21)C(=O)N(O)C3=O
Output: 75.2
